# System: Respiratory syncytial virus
# ASSAY PROCEDURE: Antiviral activity against RSV A/18-001989 harboring eGFP infected in human HeLa cells assessed as reduction in virus replication measured after 3 days by laser microscopy
# Assay type: functional, organism-based
# CONDITION: A/18-001989, HeLa, 72 h
PROPERTY MEASURED: EC50 (nM)
One number for each entry, in nM.

Fill in: EC50 of `CS(=O)(=O)N1CC2(C1)C(=O)N(Cc1nc3cc(Cl)ccc3n1CCCC(F)(F)F)c1ccccc12` is ___ 1.6

* * *

Can you tell me hepatocyte CLint at 1 µM for the items I'm about to list?
# ASSAY PROCEDURE: Intrinsic clearance in human hepatocytes assessed per million cells at 1 uM measured after 180 mins by LC-MS/MS analysis
# Format: ADME, cell-based, Hepatocyte
# CONDITION: read-out: CLH

Solved entries (count: 3):
{"columns": ["ENTRY SMILES", "hepatocyte CLint at 1 µM"],
 "data": [
  ["CC(C)NC(=O)N1CC2(C1)C(=O)N(Cc1nc3cc(Cl)ccc3n1CCCC(F)(F)F)c1cnccc12", "< 1.2 µL/min/1e6 cells"],
  ["O=C1N(Cc2nc3cc(Cl)ccc3n2CCCC(F)(F)F)c2cnccc2C12CN(S(=O)(=O)C1CC1)C2", "< 1.2 µL/min/1e6 cells"],
  ["CC(C)(O)C(=O)N1CC2(C1)C(=O)N(Cc1nc3cc(Cl)ccc3n1CCCC(F)(F)F)c1ccccc12", "< 1.2 µL/min/1e6 cells"]
]}

Quick batch: hepatocyte CLint at 1 µM for everything below.
1. CC(C)NC(=O)N1CC2(C1)C(=O)N(Cc1nc3cc(Cl)ccc3n1CCCC#N)c1ccccc12
2. CC(C)C(=O)N1CC2(C1)C(=O)N(Cc1nc3cc(Cl)ccc3n1CCCCF)c1cnccc12

1.5 µL/min/1e6 cells
< 1.2 µL/min/1e6 cells

* * *

# ASSAY PROCEDURE: Volume of distribution at steady state in Sprague-Dawley rat at 2.5 mg/kg, iv by LC-MS/MS analysis
# Format: ADME, organism-based
# CONDITION: in vivo, read-out: Vdss
PROPERTY MEASURED: Vd

Fill in: Vd of `CC(C)NC(=O)N1CC2(C1)C(=O)N(Cc1nc3cc(Cl)ccc3n1CCCC#N)c1ccccc12` is ___ 3.2 L/kg

* * *

# ASSAY PROCEDURE: Clearance in Sprague-Dawley rat at 1 mg/kg, iv by LC-MS/MS analysis
# Assay type: ADME, organism-based
# CONDITION: in vivo
Would you mind labelling by clearance? At or over 30 mL/min/kg is True, under is False.

Solved cases (2 shown):
{"columns": ["ENTRY SMILES", "CATEGORY"],
 "data": [
  ["CC(C)NC(=O)N1CC2(C1)C(=O)N(Cc1nc3cc(Cl)ccc3n1CCCC(F)(F)F)c1cnccc12", "True"],
  ["CC(C)(O)C(=O)N1CC2(C1)C(=O)N(Cc1nc3cc(Cl)ccc3n1CCCC(F)(F)F)c1ccccc12", "False"]
]}

In plain terms: is recorded clearance at least 30 mL/min/kg for `CS(=O)(=O)N1CC2(C1)C(=O)N(Cc1nc3cc(Cl)ccc3n1CCCC(F)(F)F)c1ccccc12` ? False

In plain terms: is recorded clearance at least 30 mL/min/kg for `CC(C)C(=O)N1CC2(C1)C(=O)N(Cc1nc3cc(Cl)ccc3n1CCCCF)c1cnccc12` ? False

In plain terms: is recorded clearance at least 30 mL/min/kg for `O=C1N(Cc2nc3cc(Cl)ccc3n2CCCC(F)(F)F)c2cnccc2C12CN(S(=O)(=O)C1CC1)C2` ? True
